Origin of the recorded values: paper PMC5028280

# targetSystem: 5-HT2B (Homo sapiens)
# Sequence (P41595 whole entry): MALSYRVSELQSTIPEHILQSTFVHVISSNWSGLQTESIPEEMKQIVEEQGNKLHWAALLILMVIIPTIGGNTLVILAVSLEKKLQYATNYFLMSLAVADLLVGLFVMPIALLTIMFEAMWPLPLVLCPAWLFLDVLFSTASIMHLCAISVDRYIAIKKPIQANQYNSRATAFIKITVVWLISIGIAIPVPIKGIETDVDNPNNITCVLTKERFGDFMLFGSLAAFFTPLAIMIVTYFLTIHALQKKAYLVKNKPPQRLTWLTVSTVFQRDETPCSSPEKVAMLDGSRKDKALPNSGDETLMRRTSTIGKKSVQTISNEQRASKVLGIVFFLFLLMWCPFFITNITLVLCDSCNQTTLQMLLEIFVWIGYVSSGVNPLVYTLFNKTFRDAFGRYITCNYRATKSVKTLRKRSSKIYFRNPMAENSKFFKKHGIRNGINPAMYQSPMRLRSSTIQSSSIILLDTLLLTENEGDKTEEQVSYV
# measurementProtocol: 5-HT2B antagonism functional assay
# Type: cell-based
# conditionContext: read-out: 5-HT2B Antagonism IC50; mean of 3 replicates
// reported pIC50 per item
As a rule, pIC50 stands for the negative log10 of the concentration, concentration in M.

Worked examples, 2 compounds total:
>  <testSmiles>
CCCCCn1cc(C(=O)Cc2ccccc2)c2ccccc21

>  <pIC50>
4.32

$$$$
>  <testSmiles>
O=C(c1cccc2ccccc12)c1cn(CCCCCF)c2ccccc12

>  <pIC50>
4.62

$$$$

Request: Quick one: pIC50 for CCCCn1cc(C(=O)c2cccc3ccccc23)c2ccccc21 ?
Response: 4.71

Request: Which pIC50 reading was recorded for the compound CCCCCn1cc(C(=O)c2ccc(CC)c3ccccc23)c2ccccc21 ?
Response: 2.54
